Molecular target: human melanocortin 4 receptor (human, UniProt P32245 1-332)
Sequence (P32245 whole entry): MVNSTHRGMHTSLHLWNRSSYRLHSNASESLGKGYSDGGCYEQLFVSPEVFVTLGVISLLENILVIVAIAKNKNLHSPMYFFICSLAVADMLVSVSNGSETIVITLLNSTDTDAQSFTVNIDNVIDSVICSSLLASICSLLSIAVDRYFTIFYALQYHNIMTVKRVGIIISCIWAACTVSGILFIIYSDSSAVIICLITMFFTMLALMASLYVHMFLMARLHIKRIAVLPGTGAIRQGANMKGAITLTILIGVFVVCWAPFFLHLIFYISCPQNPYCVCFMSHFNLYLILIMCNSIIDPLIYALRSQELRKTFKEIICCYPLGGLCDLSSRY
Assay: radioligand binding
Square brackets hold non-standard residues; d marks the D form. Dap = NC[C@H](N)C(=O)O
# reported pIC50; entries follow
In plain terms, pIC50 is the concentration in mol/L turned into minus its base-10 logarithm.

cyclo(PRYF[Dap]AF[dP]) [c[Pro-Arg-Tyr-Phe-Dap-Ala-Phe-DPro]]	5.99
cyclo(PRFFNVF[dP]) [c[Pro-Arg-Phe-Phe-Asn-Val-Phe-DPro]]	6.60
cyclo(PHFFNAF[dP]) [c[Pro-His-Phe-Phe-Asn-Ala-Phe-DPro]]	4.66

Next:
Problem: Kindly indicate its recorded pIC50. Item: cyclo(PRYFNAF[dP]) [c[Pro-Arg-Tyr-Phe-Asn-Ala-Phe-DPro]]
Solution: 4.84
